Quick reference: melting point of the listed items.

Some entries whose results are on file:
CCc1ccccc1-n1ncc(C#N)c1N; 130 °C
Cc1cccc(-c2[nH]c(C(C)C)nc2-c2cccc(-c3ccc(S(=O)(=O)N4CCOCC4)cc3)c2)n1; 88 to 92 °C
COc1ccc(N)cc1NCC(N)=O; 144 °C
FC(F)(F)c1ccc(CC[C@H]2CNCCN2)cc1; 135 to 141 °C

# melting point (molecule: N#Cc1c(Cl)ccc(C(=O)O)c1Cl ) is 230 to 232 °C

The molecule listed as CS(=O)(=O)c1ccc2c(c1)C(=O)CC1(CCN(C(=O)c3ccccc3)CC1)O2 has a reported melting point of 155 to 157 °C
